Item-by-item account of pEC50
systemName: human P2Y4 receptor (Homo sapiens)
Construct: expressed in transfected cells; host or cells: 1321N1 human astrocytoma cells, G418-selected clone, pcDNA3-P2Y4
Sequence (P51582 whole entry): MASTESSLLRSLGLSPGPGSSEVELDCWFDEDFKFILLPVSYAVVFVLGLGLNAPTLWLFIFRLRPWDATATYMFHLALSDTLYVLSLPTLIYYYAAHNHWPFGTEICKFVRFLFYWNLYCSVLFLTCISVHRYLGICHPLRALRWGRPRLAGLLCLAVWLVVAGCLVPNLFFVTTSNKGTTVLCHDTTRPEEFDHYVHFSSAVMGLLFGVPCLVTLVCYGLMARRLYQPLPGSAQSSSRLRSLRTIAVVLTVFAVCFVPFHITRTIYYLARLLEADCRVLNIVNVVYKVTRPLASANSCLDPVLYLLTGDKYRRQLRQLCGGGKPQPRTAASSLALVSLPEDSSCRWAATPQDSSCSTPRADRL
procedureSummary: InsP3 accumulation in 1321N1 cells expressing the human P2Y4 receptor
Type: cell-based
testConditions: clone 11, 20 min incubation, 10 mM LiCl; read-out: EC50 InsP3 production
pEC50: −log10 of the molar value.
readoutName: pEC50

compound	readoutName	endpointValue
O=c1ccn([C@@H]2O[C@H](COP(=O)(O)OP(=O)(O)OP(=O)(O)O)[C@@H](O)[C@H]2O)c(=O)[nH]1 [UTP, uridine triphosphate]	pEC50	5.62
O=c1ccn([C@@H]2O[C@H](COP(=O)(O)OP(=O)(O)O)[C@@H](O)[C@H]2O)c(=O)[nH]1 [UDP]	pEC50	4.70
